System: SH-SY-5Y Cells
Protocol Text: MTS toxicity assay in SHSY5Y cells
Format: cell-based, human
Experimental Context: Dose 2 uM
Reported APP Toxicity SH-SY-5Y Cells (MTS assay) is given for each of the following compounds.
Observation Type: APP Toxicity SH-SY-5Y Cells (MTS assay) (% vehicle control)

INSERT INTO assay_data (compound, value_observed) VALUES
  ('COc1ccc2c(c1)[C@@]1(C)CCN(C)C1N2C (stereo partly drawn) [MES 9229]', 99.97),
  ('Cc1cc2c(cc1O)[C@]1(C)CCN(C)C1N2C (stereo partly drawn)', 97.98),
  ('COc1ccc2c(c1)[C@](C)(CCN)C(=O)N2C.Cl', 100.15),
  ('COc1ccc2c(c1)[C@]1(C)CCOC1N2C (stereo partly drawn)', 96.2),
  ('COc1ccc2c(c1)c(CCN(C)C)cn2Cc1ccccc1', 99.18),
  ('COc1ccc2c(c1)[C@]1(C)CCN(C)C1N2Cc1ccccc1 (stereo partly drawn) [MES 9242]', 94.2),
  ('CN1CC[C@@]2(C)C3=CC(=O)C(=O)C=C3N(C)C12 (stereo partly drawn)', 104.6),
  ('CNC(C)c1cccc(OC)c1 (stereo not drawn)', 99),
  ('COc1ccc2c(c1)[C@]1(C)CCN(C)C1N2Cc1ccccc1 (single isomer, unassigned) [MES 9202]', 99.15),
  ('CN1CC[C@]2(C)c3cc(O)ccc3N(Cc3ccccc3)C12 (stereo partly drawn)', 92.3),
  ('CC1C(=O)N(C)c2ccc(O)cc21 (stereo not drawn) [MES 9292, 1,3-Dimethyl-5-hydroxyoxindole]', 102.85),
  ('COc1ccc2c(c1)C1(C)CCN(C)C1N2Cc1ccccc1 (stereo not drawn)', 100.5),
  ('Clc1ccc(C2CC3CCC2N3)cn1 (stereo not drawn)', 100.45),
  ('COc1ccc2c(c1)[C@@]1(C)CCN(C)C1N2C (single isomer, unassigned; (+)) [MES 9295, (+)-O-Methyleseroline]', 101.15),
  ('CN(C)CC[C@]1(C)C(=O)N(C)c2ccc(O)cc21', 101.1),
  ('COc1ccc2c(c1)[C@@](C)(CC[N+](C)(C)C)C(O)N2Cc1ccccc1.[I-] (stereo partly drawn)', 97.6),
  ('CC(Br)C(=O)N(C)c1ccc(O)cc1 (stereo not drawn)', 102.4),
  ('Br.CC1=C(c2ccc(O)cc2)CN2CCC[C@H]2C1.O', 99.05),
  ('COc1ccc2c(c1)[C@@]1(C)CC[N+](C)(C)C1N2Cc1ccccc1.[I-] (stereo partly drawn)', 102.55),
  ('COc1ccc2c(c1)[C@@](C)(CC#N)C(=O)N2C', 103.7),
  ('COc1ccc2c(c1)[C@]1(C)CCNC1N2 (stereo partly drawn)', 99.1),
  ('COC(=O)CC1(C)C(=O)N(C)c2ccc(OC)cc21 (stereo not drawn)', 100.85),
  ('COc1ccc2c(c1)C(C)C(=O)N2C (stereo not drawn)', 100.8),
  ('CN1CC[C@@]2(C)c3cc(O)ccc3N(Cc3ccccc3)C12 (stereo partly drawn)', 96),
  ('CN1C(=O)C(=O)c2ccccc21', 99.95),
  ('C[C@]12CCN(Cc3ccccc3)C1N(Cc1ccccc1)c1ccc(O)cc12 (stereo partly drawn)', 41.8),
  ('COc1ccc2c(c1)[C@]1(C)CCN(Cc3ccccc3)C1N2C=O (stereo partly drawn)', 98.25),
  ('CN1c2ccc(OC3CCCCO3)cc2[C@]2(C)CCNC12 (single isomer, unassigned; (-)) [MES 9320, (−)-O-Tetrahydropyranyl-N-1-noreseroline]', 92),
  ('COc1ccc2c(c1)[C@]1(C)CCN(Cc3ccccc3)C1N2 (stereo partly drawn)', 97.63),
  ('CN1CC[C@]2(C)c3cc(O)ccc3N(C)C12 (stereo partly drawn)', 100.8),
  ('COc1ccc2c(c1)C1(C)CCSC1N2C (stereo not drawn)', 99.15),
  ('C=CC1C[N+]2(Cc3ccc(C(F)(F)F)cc3)CCC1CC2[C@H](O)c1ccnc2ccccc12.[Br-] (stereo partly drawn)', 106.4),
  ('C=CCO[C@H](c1ccnc2ccccc12)C1CC2CC[N+]1(Cc1c3ccccc3cc3ccccc13)CC2C=C.[Br-] (stereo partly drawn)', 100.5),
  ('COc1ccc2c(c1)C(C)(c1ccccc1)C(=O)N2C (stereo not drawn)', 102.15),
  ('COc1ccc2c(c1)[C@@]1(C)CCN(C)C1N2Cc1ccccc1 (single isomer, unassigned)', 98.93),
  ('CC(Br)C(=O)N(Cc1ccccc1)c1ccc(O)cc1 (stereo not drawn)', 102.3),
  ('C[C@@]12CCN(Cc3ccccc3)C1Nc1ccc(O)cc12 (stereo partly drawn)', 68.63),
  ('COc1ccc2c(c1)C(O)(c1ccccc1)C(=O)N2C (stereo not drawn)', 99.8),
  ('COc1ccc2c(c1)C1(c3ccccc3)CCNC1N2C (stereo not drawn)', 95.8);
